assay.target: IFN-gamma (Homo sapiens, UniProt P01579 P01579:24-161)
Sequence (P01579 24-161, one chain of several): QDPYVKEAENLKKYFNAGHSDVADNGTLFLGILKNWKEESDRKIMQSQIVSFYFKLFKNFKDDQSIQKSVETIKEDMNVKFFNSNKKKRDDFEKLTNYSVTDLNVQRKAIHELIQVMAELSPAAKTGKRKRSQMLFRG
protocol.summary: filter; biphasic 8.8/384 nM
experimental.conditions: tags: Genzyme (Cambridge MA); Upstate Biotechnology for early SELEX rounds; chain copies: 2 inferred
readout.name: pKd
Answers are plain numbers, as −log10 of the molar value.

IN: Which pKd value belongs to IFN-gamma 2'F-27 (ssRNA, 2'-F all C and U) RNA: GGGAGGACGAUGCGGAACACCCCCGGUCUGACGCUUGUUCCGAAUUCCUCCACCGUCAGACGACUCGCCCGA ?
OUT: 8.06
